Reported MDS (n) values for the following compounds.
System: DU 145 Human Prostate Carcinoma Xenografts
CONDITION_INFO: DU145; i.v. qd x 1 (mg/kg: Taxol 24, 1351 107.6, 1393 72.6, 1401 107.6, 1418 107.6, 1424 195.1); 5 mice/group; 1.5 g cut-off; Day 91

Here's what some known entries look like.
[[record]]
compound = "CCC(=O)O[C@H]1C[C@H]2OC[C@@]2(OC(C)=O)[C@H]2[C@H](OC(=O)c3ccccc3)[C@]3(O)C[C@H](OC(=O)[C@H](O)[C@H](C=C(C)C)NC(=O)OC(C)(C)C)C(C)=C([C@@H](O)C(=O)[C@]12C)C3(C)C [Compound 1351]"
observed = "62.6 ± 17.5 (2) days"

[[record]]
compound = "CC(=O)O[C@H]1C(=O)[C@@]2(C)[C@H]([C@H](OC(=O)c3ccccc3)[C@]3(O)C[C@H](OC(=O)[C@H](O)[C@@H](NC(=O)c4ccccc4)c4ccccc4)C(C)=C1C3(C)C)[C@]1(OC(C)=O)CO[C@@H]1C[C@@H]2O [Taxol, paclitaxel, reference compound]"
observed = "37.4 ± 8.9 (3) days"

[[record]]
compound = "CCC(=O)O[C@H]1C[C@H]2OC[C@@]2(OC(C)=O)[C@H]2[C@H](OC(=O)c3ccccc3)[C@]3(O)C[C@H](OC(=O)[C@H](O)[C@@H](NC(=O)OC(C)(C)C)c4ccoc4)C(C)=C([C@@H](O)C(=O)[C@]12C)C3(C)C [Compound 1401]"
observed = "72.6 ± 8.7 (3) days"


## Input Name the recorded MDS (n) for CCC(=O)O[C@H]1C[C@H]2OC[C@@]2(OC(C)=O)[C@H]2[C@H](OC(=O)c3ccccc3)[C@]3(O)C[C@H](OC(=O)[C@H](O)[C@@H](NC(=O)OC(C)(C)C)c4ccsc4)C(C)=C([C@@H](O)C(=O)[C@]12C)C3(C)C [Compound 1424] .
## Output 76.0 ± 5.4 (4) days

----------
Test system: HCT116
PROCEDURE_DETAILS: In Vitro cytotoxicity measured by the cell colony formation assay
Format: cell-based
CONDITION_INFO: Homo sapiens, HCT-116; 72 h drug incubation, colonies counted after 7 days; concentration producing 50% inhibition of colony formation; read-out: IN VITRO ID 50 (nm) HCT116
Method: In Vitro cytotoxicity measured by the cell colony formation assay Four hundred cells (HCT116) were plated in 60 mm Petri dishes containing 2.7 mL of medium (modified McCoy's 5a medium containing 10% fetal bovine serum and 100 units/mL penicillin and […] streptomycin). The cells were incubated in a CO2 incubator at 37 °C for 5 h for attachment to the bottom of Petri dishes. […] The cell colonies were counted using a colony counter after incubation for 7 days. […]
MEASUREMENT_NAME: IC50

[[record]]
compound = "CCCC(=O)OC1CC2OCC2(OC(C)=O)C2C(OC(=O)c3ccccc3)C3(O)CC(OC(=O)C(O)C(C=C(C)C)NC(=O)OC(C)(C)C)C(C)=C(C(O)C(=O)C12C)C3(C)C (centres unmarked)"
measurement_name = "IC50"
observed = "< 1 nM"

[[record]]
compound = "CCOC(=O)NC(c1cccs1)C(O)C(=O)OC1CC2(O)C(OC(=O)c3ccccc3)C3C4(OC(C)=O)COC4CC(OC(=O)CC)C3(C)C(=O)C(O)C(=C1C)C2(C)C (centres unmarked)"
measurement_name = "IC50"
observed = "< 1 nM"

[[record]]
compound = "CCCC(=O)OC1CC2OCC2(OC(C)=O)C2C(OC(=O)c3ccccc3)C3(O)CC(OC(=O)C(O)C(NC(=O)OCC(C)C)c4cccs4)C(C)=C(C(O)C(=O)C12C)C3(C)C (centres unmarked)"
measurement_name = "IC50"
observed = "< 10 nM"

[[record]]
compound = "CCC(=O)O[C@H]1C[C@H]2OC[C@@]2(OC(C)=O)[C@H]2[C@H](OC(=O)c3ccccc3)[C@]3(O)C[C@H](OC(=O)[C@H](O)[C@@H](NC(=O)OC(C)(C)C)c4ccncc4)C(C)=C([C@@H](O)C(=O)[C@]12C)C3(C)C"
measurement_name = "IC50"
observed = "< 1 nM"


Turning now to a further compound:
## Input Reported IC50 for CC(=O)O[C@@]12CO[C@@H]1C[C@H](OC(=O)C(C)C)[C@@]1(C)C(=O)[C@H](O)C3=C(C)[C@@H](OC(=O)[C@H](O)[C@@H](NC(=O)OC(C)(C)C)c4cccs4)C[C@@](O)([C@@H](OC(=O)c4ccccc4)[C@H]21)C3(C)C : what is it?
## Output < 1 nM

----------
Tested on: A2780 Human Ovarian Carcinoma Xenografts
CONDITION_INFO: i.v. qd x 1 (mg/kg: Taxol 24, 1351 75.3, 1401 107.6, 1418 107.6, Taxotere 70), 2.0 g cut-off, Day 60
Description: Other antitumor compounds were similarly formulated. […] The dosing volume was 0.3 ml per 20 g mouse. Female NCr-nude mice (implanted subcutaneously with 1 mm^3 A2780 ovarian carcinoma fragments in the flank) were sorted into treatment groups of five mice each, except for the Taxotere treatment group including six mice. […] Dosing was initiated on Day 1. […]
The entries below come with measured MDS (n) values attached.

[[record]]
molecule = "CCC(=O)O[C@H]1C[C@H]2OC[C@@]2(OC(C)=O)[C@H]2[C@H](OC(=O)c3ccccc3)[C@]3(O)C[C@H](OC(=O)[C@H](O)[C@@H](NC(=O)OC(C)(C)C)c4ccoc4)C(C)=C([C@@H](O)C(=O)[C@]12C)C3(C)C [Compound 1401]"
measurement_name = "MDS (n)"
observed = "32.1 ± 3.9 (4) days"

[[record]]
molecule = "CCC(=O)O[C@H]1C[C@H]2OC[C@@]2(OC(C)=O)[C@H]2[C@H](OC(=O)c3ccccc3)[C@]3(O)C[C@H](OC(=O)[C@H](O)[C@@H](NC(=O)OC(C)(C)C)c4cccs4)C(C)=C([C@@H](O)C(=O)[C@]12C)C3(C)C [Compound 1418]"
measurement_name = "MDS (n)"
observed = "32.0 ± 2.3 (5) days"


## Input Request: MDS (n), test system A2780 Human Ovarian Carcinoma Xenografts, entry CC(=O)O[C@@]12CO[C@@H]1C[C@H](O)[C@@]1(C)C(=O)[C@H](O)C3=C(C)[C@@H](OC(=O)[C@H](O)[C@@H](NC(=O)OC(C)(C)C)c4ccccc4)C[C@@](O)([C@@H](OC(=O)c4ccccc4)[C@H]21)C3(C)C [docetaxel, reference compound]
## Output 27.4 ± 3.5 (5) days

----------
Tested on: HCT116
PROCEDURE_DETAILS: In Vitro cytotoxicity measured by the cell colony formation assay
Type: cell-based
CONDITION_INFO: Homo sapiens, HCT-116; 72 h drug incubation, colonies counted after 7 days; concentration producing 50% inhibition of colony formation; read-out: IN VITRO ID 50 (nm) HCT116
pIC50: −log10 of the molar value.
Recorded pIC50, one value per entry.

[[record]]
compound = "CCCC(=O)OC1CC2OCC2(OC(C)=O)C2C(OC(=O)c3ccccc3)C3(O)CC(OC(=O)C(O)C(NC(=O)OC(C)(C)C)c4ccco4)C(C)=C(C(O)C(=O)C12C)C3(C)C (centres unmarked)"
observed = "> 9.00"


Turning to the following compound.
## Input Requested read-out: pIC50. Entry: CCC(=O)O[C@H]1C[C@H]2OC[C@@]2(OC(C)=O)[C@H]2[C@H](OC(=O)c3ccccc3)[C@]3(O)C[C@H](OC(=O)[C@H](O)[C@@H](NC(=O)OCC(C)C)c4ccoc4)C(C)=C([C@@H](O)C(=O)[C@]12C)C3(C)C
## Output > 8.00

----------
Test system: A375 Human Melanoma Xenografts
CONDITION_INFO: A375; i.v. qd x 1 (mg/kg: Taxol 24, 1393 72.6, 1418 107.6, Taxotere 70)
MEASUREMENT_NAME: survival extension compared to Group 1 controls (%)
Report only the number, with the unit % understood.

Before answering, review these 3 worked examples.
[[record]]
molecule = "CC(=O)O[C@H]1C(=O)[C@@]2(C)[C@H]([C@H](OC(=O)c3ccccc3)[C@]3(O)C[C@H](OC(=O)[C@H](O)[C@@H](NC(=O)c4ccccc4)c4ccccc4)C(C)=C1C3(C)C)[C@]1(OC(C)=O)CO[C@@H]1C[C@@H]2O [Taxol, paclitaxel, reference compound]"
units_symbol = "%"
observed = 26

[[record]]
molecule = "CC(=O)O[C@@]12CO[C@@H]1C[C@H](O)[C@@]1(C)C(=O)[C@H](O)C3=C(C)[C@@H](OC(=O)[C@H](O)[C@@H](NC(=O)OC(C)(C)C)c4ccccc4)C[C@@](O)([C@@H](OC(=O)c4ccccc4)[C@H]21)C3(C)C [docetaxel, reference compound]"
units_symbol = "%"
observed = 49

[[record]]
molecule = "CCC(=O)O[C@H]1C[C@H]2OC[C@@]2(OC(C)=O)[C@H]2[C@H](OC(=O)c3ccccc3)[C@]3(O)C[C@H](OC(=O)[C@H](O)[C@@H](NC(=O)OC(C)(C)C)c4cccs4)C(C)=C([C@@H](O)C(=O)[C@]12C)C3(C)C [Compound 1418]"
units_symbol = "%"
observed = 140


Consider the record given below.
## Input // lookup survival extension compared to Group 1 controls for CCC(=O)OC1CC2OCC2(OC(C)=O)C2C(OC(=O)c3ccccc3)C3(O)CC(OC(=O)C(O)C(NC(=O)OC(C)(C)C)c4ccco4)C(C)=C(C(O)C(=O)C12C)C3(C)C (stereo not shown) [Compound 1393]
## Output 250
